- Organism: Homo sapiens
- assay_explanation: Selectivity for human NPY4 over NPY1 receptor
Positions of bridges follow the written chain, without caps; N, C: chain ends. Non-standard residues stand in square brackets, D forms with d. Residues, ends and D or L forms follow the SMILES beside them. Chains are numbered I, II in the order given. Nva = CCC[C@H](N)C(=O)O
recorded_endpoint: Selectivity ratio

compound="CCC[C@H](NC(=O)[C@H](CCCN=C(N)N)NC(=O)[C@H](Cc1c[nH]c2ccccc12)NC(=O)[C@@H](N)CSSC[C@H](N)C(=O)N[C@@H](Cc1c[nH]c2ccccc12)C(=O)N[C@@H](CCCN=C(N)N)C(=O)N[C@@H](CCC)C(=O)N[C@@H](CCCN=C(N)N)C(=O)N[C@@H](Cc1ccc(O)cc1)C(N)=O)C(=O)N[C@@H](CCCN=C(N)N)C(=O)N[C@@H](Cc1ccc(O)cc1)C(N)=O (I: H-CWR[Nva]RY-NH2 / II: H-CWR[Nva]RY-NH2; disulfide I:1-II:1)" recorded_endpoint="Selectivity ratio" observed_result=10

----------
- Species on record: Homo sapiens
- assay_explanation: Selectivity for human NPY4 over NPY1 receptor
Non-standard residues stand in square brackets, D forms with d. Residues, ends and D or L forms follow the SMILES beside them. Nva = CCC[C@H](N)C(=O)O
Collected Selectivity ratio values appear next to each entry.
recorded_endpoint: Selectivity ratio

compound="CCC[C@H](NC(=O)[C@H](CCCN=C(N)N)NC(=O)[C@H](Cc1c[nH]c2ccccc12)NC(=O)[C@H](Cc1ccc(O)cc1)NC(=O)[C@H](CCCN=C(N)N)NC(=O)[C@H](CCC)NC(=O)[C@H](CCCN=C(N)N)NC(=O)[C@@H](N)Cc1c[nH]c2ccccc12)C(=O)N[C@@H](CCCN=C(N)N)C(=O)N[C@@H](Cc1ccc(O)cc1)C(N)=O (H-WR[Nva]RYWR[Nva]RY-NH2)" recorded_endpoint="Selectivity ratio" observed_result=50
compound=CCC[C@H](NC(=O)[C@H](CCCN=C(N)N)NC(=O)[C@H](Cc1c[nH]c2ccccc12)NC(=O)[C@@H](N)CC[C@H](N)C(=O)N[C@@H](Cc1c[nH]c2ccccc12)C(=O)N[C@@H](CCCN=C(N)N)C(=O)N[C@@H](CCC)C(=O)N[C@@H](CCCN=C(N)N)C(=O)N[C@@H](Cc1ccc(O)cc1)C(N)=O)C(=O)N[C@@H](CCCN=C(N)N)C(=O)N[C@@H](Cc1ccc(O)cc1)C(N)=O recorded_endpoint="Selectivity ratio" observed_result=34
compound="CCC[C@H](NC(=O)[C@H](CCCN=C(N)N)NC(=O)[C@H](Cc1c[nH]c2ccccc12)NC(=O)[C@H](Cc1ccc(O)cc1)NC(=O)[C@H](CCCN=C(N)N)NC(=O)[C@H](CCC)NC(=O)[C@H](CCCN=C(N)N)NC(=O)[C@H](Cc1c[nH]c2ccccc12)NC(=O)[C@H](Cc1ccc(O)cc1)NC(=O)[C@H](CCCN=C(N)N)NC(=O)[C@H](CCC)NC(=O)[C@H](CCCN=C(N)N)NC(=O)[C@@H](N)Cc1c[nH]c2ccccc12)C(=O)N[C@@H](CCCN=C(N)N)C(=O)N[C@@H](Cc1ccc(O)cc1)C(N)=O (H-WR[Nva]RYWR[Nva]RYWR[Nva]RY-NH2)" recorded_endpoint="Selectivity ratio" observed_result=10

----------
- system_name: Neuropeptide Y receptor type 2 (Homo sapiens)
- Sequence (P49146 whole entry): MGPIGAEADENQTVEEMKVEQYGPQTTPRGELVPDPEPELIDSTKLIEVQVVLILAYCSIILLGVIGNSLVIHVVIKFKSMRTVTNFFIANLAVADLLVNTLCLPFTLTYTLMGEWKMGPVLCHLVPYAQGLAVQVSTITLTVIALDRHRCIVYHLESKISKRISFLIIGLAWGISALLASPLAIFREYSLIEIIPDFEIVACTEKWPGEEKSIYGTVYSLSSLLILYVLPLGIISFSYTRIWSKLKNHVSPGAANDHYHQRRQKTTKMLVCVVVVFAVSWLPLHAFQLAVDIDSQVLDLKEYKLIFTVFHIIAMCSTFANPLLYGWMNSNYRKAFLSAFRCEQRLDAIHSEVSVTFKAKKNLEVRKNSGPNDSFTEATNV
- assay_explanation: Displacement of […] from human NPY2 receptor expressed in CHO cells
- Type: cell-based
Non-standard residues stand in square brackets, D forms with d. Residues, ends and D or L forms follow the SMILES beside them. Nva = CCC[C@H](N)C(=O)O
recorded_endpoint: Ki (nM)

molecule=CCC[C@H](NC(=O)[C@H](CCCN=C(N)N)NC(=O)[C@H](Cc1c[nH]c2ccccc12)NC(=O)[C@@H](N)CC[C@H](N)C(=O)N[C@@H](Cc1c[nH]c2ccccc12)C(=O)N[C@@H](CCCN=C(N)N)C(=O)N[C@@H](CCC)C(=O)N[C@@H](CCCN=C(N)N)C(=O)N[C@@H](Cc1ccc(O)cc1)C(N)=O)C(=O)N[C@@H](CCCN=C(N)N)C(=O)N[C@@H](Cc1ccc(O)cc1)C(N)=O system_name="Neuropeptide Y receptor type 2 (Homo sapiens)" recorded_endpoint=Ki unit_symbol=nM observed_result=360
molecule="CCC[C@H](NC(=O)[C@H](CCCN=C(N)N)NC(=O)[C@H](Cc1c[nH]c2ccccc12)NC(=O)[C@@H](N)CCC[C@H](N)C(=O)N[C@@H](Cc1c[nH]c2ccccc12)C(=O)N[C@@H](CCCN=C(N)N)C(=O)N[C@@H](CCC)C(=O)N[C@@H](CCCN=C(N)N)C(=O)N[C@@H](Cc1ccc(O)cc1)C(N)=O)C(=O)N[C@@H](CCCN=C(N)N)C(=O)N[C@@H](Cc1ccc(O)cc1)C(N)=O (stereo in doubt; 2A)" system_name="Neuropeptide Y receptor type 2 (Homo sapiens)" recorded_endpoint=Ki unit_symbol=nM observed_result=310
molecule="CCC[C@H](NC(=O)[C@H](CCCN=C(N)N)NC(=O)[C@H](Cc1c[nH]c2ccccc12)NC(=O)[C@H](Cc1ccc(O)cc1)NC(=O)[C@H](CCCN=C(N)N)NC(=O)[C@H](CCC)NC(=O)[C@H](CCCN=C(N)N)NC(=O)[C@@H](N)Cc1c[nH]c2ccccc12)C(=O)N[C@@H](CCCN=C(N)N)C(=O)N[C@@H](Cc1ccc(O)cc1)C(N)=O (H-WR[Nva]RYWR[Nva]RY-NH2)" system_name="Neuropeptide Y receptor type 2 (Homo sapiens)" recorded_endpoint=Ki unit_symbol=nM observed_result=1050
molecule="CCC[C@H](NC(=O)[C@H](CCCN=C(N)N)NC(=O)[C@H](Cc1c[nH]c2ccccc12)NC(=O)[C@H](Cc1ccc(O)cc1)NC(=O)[C@H](CCCN=C(N)N)NC(=O)[C@H](CCC)NC(=O)[C@H](CCCN=C(N)N)NC(=O)[C@H](Cc1c[nH]c2ccccc12)NC(=O)[C@H](Cc1ccc(O)cc1)NC(=O)[C@H](CCCN=C(N)N)NC(=O)[C@H](CCC)NC(=O)[C@H](CCCN=C(N)N)NC(=O)[C@@H](N)Cc1c[nH]c2ccccc12)C(=O)N[C@@H](CCCN=C(N)N)C(=O)N[C@@H](Cc1ccc(O)cc1)C(N)=O (H-WR[Nva]RYWR[Nva]RYWR[Nva]RY-NH2)" system_name="Neuropeptide Y receptor type 2 (Homo sapiens)" recorded_endpoint=Ki unit_symbol=nM observed_result=50

----------
- assay_explanation: Displacement of […] from rat-human hybrid NPY5 receptor expressed in CHO cells
- Type: cell-based
Non-standard residues stand in square brackets, D forms with d. Residues, ends and D or L forms follow the SMILES beside them. Nva = CCC[C@H](N)C(=O)O
recorded_endpoint: Ki (nM)

compound="CCC[C@H](NC(=O)[C@H](CCCN=C(N)N)NC(=O)[C@H](Cc1c[nH]c2ccccc12)NC(=O)[C@H](Cc1ccc(O)cc1)NC(=O)[C@H](CCCN=C(N)N)NC(=O)[C@H](CCC)NC(=O)[C@H](CCCN=C(N)N)NC(=O)[C@H](Cc1c[nH]c2ccccc12)NC(=O)[C@H](Cc1ccc(O)cc1)NC(=O)[C@H](CCCN=C(N)N)NC(=O)[C@H](CCC)NC(=O)[C@H](CCCN=C(N)N)NC(=O)[C@@H](N)Cc1c[nH]c2ccccc12)C(=O)N[C@@H](CCCN=C(N)N)C(=O)N[C@@H](Cc1ccc(O)cc1)C(N)=O (H-WR[Nva]RYWR[Nva]RYWR[Nva]RY-NH2)" unit_symbol=nM observed_result=160

----------
- assay_explanation: Displacement of […] from rat-human hybrid NPY5 receptor expressed in CHO cells
- Type: cell-based
# Ki values compiled below
recorded_endpoint: Ki

sample_smiles=CC(C)C[C@H](NC(=O)[C@H](CCCN=C(N)N)NC(=O)[C@H](Cc1ccc(O)cc1)NC(=O)[C@@H](N)CCCC[C@H](N)C(=O)N[C@@H](Cc1ccc(O)cc1)C(=O)N[C@@H](CCCN=C(N)N)C(=O)N[C@@H](CC(C)C)C(=O)N[C@@H](CCCN=C(N)N)C(=O)N[C@@H](Cc1ccc(O)cc1)C(N)=O)C(=O)N[C@@H](CCCN=C(N)N)C(=O)N[C@@H](Cc1ccc(O)cc1)C(N)=O observed_result="> 1000 nM"
sample_smiles=CCC[C@H](NC(=O)[C@H](CCCN=C(N)N)NC(=O)[C@H](Cc1c[nH]c2ccccc12)NC(=O)[C@@H](N)CC[C@H](N)C(=O)N[C@@H](Cc1c[nH]c2ccccc12)C(=O)N[C@@H](CCCN=C(N)N)C(=O)N[C@@H](CCC)C(=O)N[C@@H](CCCN=C(N)N)C(=O)N[C@@H](Cc1ccc(O)cc1)C(N)=O)C(=O)N[C@@H](CCCN=C(N)N)C(=O)N[C@@H](Cc1ccc(O)cc1)C(N)=O observed_result="330 nM"
